assay-text: chemical genetic growth profiling, strain panel (AID 1159580);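 further: tested at 20 µM; growth read once vehicle control cultures reached saturation at 30 °C; 1 = growth at the plate median or of vehicle wells; lower values mean less growth of the strain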
condition-parameters: S. cerevisiae deletion strains, growth OD, locus YHR142W, strain chs7, active compounds read low
The campaign covered roughly 5,500 compounds. About 2,000 (36%) were called active. Inconclusive results (about 18%) are left out. Some of the results follow.
measurement-name: normalized growth

NC12CC3CC(CC(C3)C1)C2 :: 0.995
CCC(C)C(NC)C(=O)O (stereo not drawn) :: 1.02
CC(=O)NCc1c(I)c(NC(C)=O)c(I)c(C(=O)O)c1I :: 1.02
Nc1ccc(S(=O)(=O)c2ccc(N)cc2)cc1 :: 1.01
CO[C@@]12[C@@H]3NC3CN1C1=C(C(=O)C(N)=C(C)C1=O)[C@@H]2COC(N)=O (stereo partly drawn) :: 0.987
OC(CCN1CCCCC1)(c1ccccc1)C1CCCCC1 (stereo not drawn) :: 0.978
OC(CCN1CCCCC1)(c1ccccc1)C1CC2C=CC1C2 (stereo not drawn) :: 1
COc1cc(N)c(Cl)cc1C(=O)NC1CCN(Cc2ccccc2)CC1 :: 0.993

====

assay-text: chemical genetic growth profiling, strain panel (AID 1159580)
condition-parameters: S. cerevisiae deletion strains, growth OD, locus YGL240W, strain doc1, active compounds read low
In all, about 5,500 compounds went through this assay and about 2,000 (36%) were called active. About 18% were inconclusive and are not listed. The list shows a part of the results.
measurement-name: normalized growth

COC(=O)C[C@H]1C(C)(C)C2(O)OC34CC2C(=O)[C@]1(C)C3CC[C@]1(C)C4=CC(=O)O[C@H]1c1ccoc1 (some centres undefined) :: 0.971
C[C@@H]1C(=O)O[C@H]2[C@H]1CC[C@@]1(C)C=CC(=O)[C@@]3(C)O[C@@]213 :: 1.01
COc1ccc2c3c([nH]c2c1)C(C)=NCC3 :: 1.01
C/C=C(/C)C(=O)OC1CCC2(C)C3CCC4C5(O)CC(O)C6(O)C(CN7CC(C)CCC7C6(C)O)C5(O)CC42OC13O (centres undefined) :: 0.988

====

Measured normalized growth, listed per entry for reference.
assay-text: chemical genetic growth profiling, strain panel (AID 1159580);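 further: tested at 20 µM; growth read once vehicle control cultures reached saturation at 30 °C; 1 = growth at the plate median or of vehicle wells; lower values mean less growth of the strain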
condition-parameters: S. cerevisiae deletion strains, growth OD, locus YGL086W, strain mad1, active compounds read low
In all, about 5,500 compounds went through this assay and about 2,000 (36%) were called active. Not shown: some 18% with an inconclusive outcome. The list shows a part of the results.
measurement-name: normalized growth

CC1=CCC2C3(C)C1=CC(=O)OC3CC1C(C)(C)CC(O)C(O)C12C (stereo not drawn) :: 0.995 (inactive)
O=C1C(O)=C(O)C(=O)C(O)=C1O :: 1.02 (inactive)
CCOP(=S)(OCC)Oc1cc(C)nc(C(C)C)n1 :: 0.989 (inactive)
CC(C)=CCCC1(C)C=Cc2c(O)c3c(c(CC=C(C)C)c2O1)OC12C(=CC4CC1C(C)(C)OC2(C/C=C(\C)C(N)=O)C4=O)C3=O (stereo not drawn) :: 0.947 (inactive)
C[C@]12CCC(=O)C=C1CCC1C2[C@@H](O)C[C@@]2(C)C1CC[C@]2(O)C(=O)CO (stereo partly drawn) :: 0.988 (inactive)
O=c1cc(CO)occ1O :: 1 (inactive)
NC12CC3CC(CC(C3)C1)C2 :: 1.01 (inactive)
C#C[C@]1(O)CCC2C3CCC4=CC(=O)CC[C@@H]4C3CC[C@@]21CC (stereo partly drawn) :: 1 (inactive)

====

assay-text: chemical genetic growth profiling, strain panel (AID 1159580);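 further: tested at 20 µM; growth read once vehicle control cultures reached saturation at 30 °C; 1 = growth at the plate median or of vehicle wells; lower values mean less growth of the strain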
condition-parameters: S. cerevisiae deletion strains, growth OD, locus YDR363W, strain ESC2
Screen size: about 5,500 compounds; about 2,000 (36%) were called active. Roughly 18% stayed inconclusive and do not appear here. Cut-off read from the data, not from the text of the source: active = normalized growth mostly below about 0.91 (no sharp cut-off); inconclusive = no clear call, values can overlap the other calls; inactive = mostly above about 0.92. The list shows a part of the results.
Outcomes: true (1) = active, false (0) = inactive

Clc1cc(I)cc(Cl)c1NC1=NCCN1 :: false (0)
CC(N)C1CCC(C(=O)Nc2ccncc2)CC1 (centres undefined) :: false (0)
CC(C)C(=O)c1c(C(C)C)nn2ccccc12 :: false (0)
c1cnc(N2CCN(Cc3ccc4c(c3)OCO4)CC2)nc1 :: false (0)
Oc1ccc2c3c1O[C@H]1[C@@H](O)CC[C@@]4(O)C(C2)N(CC2CCC2)CCC314 (some centres undefined) :: false (0)
CC(=O)[C@]1(O)Cc2c(O)c3c(c(O)c2[C@@H](O[C@H]2C[C@H](N)[C@H](O)[C@H](C)O2)C1)C(=O)c1ccccc1C3=O :: true (1)
CN1C2CCC1CC(NC(=O)c1nn(C)c3ccccc13)C2 (centres undefined) :: false (0)
O=c1[nH]cc(F)c(=O)[nH]1 :: true (1)
N=C(N)c1ccc(OCCCCCOc2ccc(C(=N)N)cc2)cc1 (tested in a mixture with another compound) :: false (0)
COc1ccc2c(c1)c(CC(=O)O)c(C)n2C(=O)c1ccc(Cl)cc1 :: false (0)
COC(=O)Nc1nc2ccc(C(=O)c3cccs3)cc2[nH]1 :: false (0)
C[C@@H]1O[C@@H](O[C@H]2C[C@@H](O)[C@]3(CO)[C@@H]4C(CC[C@]3(O)C2)[C@@]2(O)CC[C@H](C3COC(=O)C3)[C@@]2(C)C[C@H]4O)[C@H](O)[C@H](O)[C@H]1O (some centres undefined) :: false (0)
N[C@@H](Cc1c[nH]c2ccccc12)C(=O)O :: false (0)
Nc1ncnc2c1nc(Sc1ccc(Cl)cc1)n2C1OC2COP(=O)(O)O[C@@H]2[C@@H]1O (some centres undefined) :: false (0)
NN=C(N)N :: false (0)
O=C(Nc1cc(C(=O)Nc2ccc(S(=O)(=O)O)cc2S(=O)(=O)O)cc(C(=O)Nc2ccc(S(=O)(=O)O)cc2S(=O)(=O)O)c1)Nc1cc(C(=O)Nc2ccc(S(=O)(=O)O)cc2S(=O)(=O)O)cc(C(=O)Nc2ccc(S(=O)(=O)O)cc2S(=O)(=O)O)c1 :: false (0)
CCN(CC)c1ncnc2c1ncn2[C@@H]1O[C@H](COP(=O)(O)OP(=O)(O)C(Br)(Br)P(=O)(O)O)[C@@H](O)[C@H]1O :: false (0)
NC(N)=NN=Cc1c(Cl)cccc1Cl :: false (0)
CN=c1nc(-c2ccccc2)n(-c2ccccc2)s1 :: false (0)
COc1cc(-c2ccc(=O)[nH]n2)ccc1OC(F)F :: false (0)
CCCCCC(O)CCCC(=O)O (centres undefined) :: false (0)
COc1ccc(C(=O)NCc2cccnc2)cc1C(=O)NCc1cccnc1 :: false (0)
COc1cccc(OC)c1OCCNCC1COc2ccccc2O1 (centres undefined) :: false (0)
NC(N)=[N+]1CCc2ccccc2C1 :: false (0)
O=C(O)C1CCCN(CCC=C(c2ccccc2)c2ccccc2)C1 (centres undefined) :: false (0)
NCc1cc(=O)[nH]o1 :: false (0)
COc1ccc2c(c1)c(CC(=O)N1CCOCC1)c(C)n2C(=O)c1ccc(Cl)cc1 :: false (0)
CCCOc1ccccc1-c1nc2n[nH]nc2c(=O)[nH]1 :: false (0)
Oc1ccc2c3c1O[C@H]1c4[nH]c5ccccc5c4C[C@@]4(O)C(C2)N(CC2CC2)CCC314 (some centres undefined) :: false (0)

====

assay-text: chemical genetic growth profiling, strain panel (AID 1159580);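 further: tested at 20 µM; growth read once vehicle control cultures reached saturation at 30 °C; 1 = growth at the plate median or of vehicle wells; lower values mean less growth of the strain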
condition-parameters: S. cerevisiae deletion strains, growth OD, locus YHR079C, strain IRE1 (second series)
About 2,000 (36%) of roughly 5,500 compounds were called active. About 18% were inconclusive and are not listed. Rule as the data show it: active = normalized growth mostly below about 0.91 (no sharp cut-off); inconclusive = no clear call, values can overlap the other calls; inactive = mostly above about 0.92. Some of the results follow.
Classes used: label 1 for active, label 0 for inactive

Cc1ccc(-c2cc(C(F)(F)F)nn2-c2ccc(S(N)(=O)=O)cc2)cc1 :: label 0
NNC(=O)c1ccncc1 :: label 0
COc1cccc(OC)c1OCCNCC1COc2ccccc2O1 (centres undefined) :: label 0
CC1(C)CC[C@]2(C(=O)O)CC[C@]3(C)C(=CCC4[C@@]5(C)CC[C@@H](O)C(C)(C)C5CC[C@]43C)C2C1 (some centres undefined) :: label 0
Cc1cc(O)cc(O)c1C(=O)O :: label 0
CC(C)CC(N(C)C)C1(c2ccc(Cl)cc2)CCC1 (centres undefined) :: label 0
CC(=O)O[C@H]1CC[C@@]2(C)C(CC[C@]3(C)C2C(=O)C=C2C4[C@@H](C)[C@H](C)CC[C@]4(C(=O)O)CC[C@]23C)C1(C)C (some centres undefined) :: label 0
CC(C)(Oc1ccc(CCNC(=O)c2ccc(Cl)cc2)cc1)C(=O)O :: label 0
COC(=O)C[C@H]1C(C)(C)C2(O)OC34CC2C(=O)[C@]1(C)C3CC[C@]1(C)C4=CC(=O)O[C@H]1c1ccoc1 (some centres undefined) :: label 0
Nc1c2ccccc2nc2ccccc12 :: label 1
CC1=CCC2C3(C)C1=CC(=O)OC3CC1C(C)(C)CC(O)C(O)C12C (centres undefined) :: label 0
Nc1c2c(nc3ccccc13)CCCC2O (centres undefined) :: label 0
Clc1ccccc1C(c1ccccc1)(c1ccccc1)n1ccnc1 :: label 1
C[C@]12CCC(=O)C=C1CCC1C2[C@@H](O)C[C@@]2(C)C1CC[C@]2(O)C(=O)CO (some centres undefined) :: label 0
